measured-target: T1, monkey thyroid-stimulating hormone receptor (TSHR) (monkey, UniProt A0A2K5X226 21-764)
T1 construct: Overexpressed on 293 cells; also called monkey TSHR
T1 sequence (A0A2K5X226 entry or part of it limits assumed, form in doubt): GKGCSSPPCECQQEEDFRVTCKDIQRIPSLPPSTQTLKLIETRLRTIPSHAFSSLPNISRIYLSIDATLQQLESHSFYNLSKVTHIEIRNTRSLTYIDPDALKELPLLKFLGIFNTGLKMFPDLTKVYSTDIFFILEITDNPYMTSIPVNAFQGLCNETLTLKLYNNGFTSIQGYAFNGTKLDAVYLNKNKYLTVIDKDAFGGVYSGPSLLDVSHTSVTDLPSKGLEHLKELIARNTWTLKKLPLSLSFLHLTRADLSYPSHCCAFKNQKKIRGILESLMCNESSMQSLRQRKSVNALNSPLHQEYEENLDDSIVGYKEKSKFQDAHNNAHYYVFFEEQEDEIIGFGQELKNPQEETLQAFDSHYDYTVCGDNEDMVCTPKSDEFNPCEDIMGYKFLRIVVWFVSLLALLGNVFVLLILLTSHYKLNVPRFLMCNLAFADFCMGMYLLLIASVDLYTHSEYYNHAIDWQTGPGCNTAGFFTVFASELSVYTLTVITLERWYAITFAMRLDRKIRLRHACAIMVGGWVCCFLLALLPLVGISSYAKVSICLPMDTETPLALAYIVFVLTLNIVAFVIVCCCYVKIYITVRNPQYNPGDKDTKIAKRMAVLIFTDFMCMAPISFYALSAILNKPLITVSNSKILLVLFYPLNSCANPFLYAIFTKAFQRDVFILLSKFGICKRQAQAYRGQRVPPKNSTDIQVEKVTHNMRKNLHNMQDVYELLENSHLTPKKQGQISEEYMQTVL
assay-summary: flow cytometry (FACS), 293 cells overexpressing monkey TSHR
property-measured: Maximum binding signal

[[record]]
binder = "humanized antibody cAb01-VH3-DA-VL2 (antibody, human IgG4 S228P, kappa, V domains shown, Humanized from mAb001) VH: EVQLVESGGGLVKPGGSLRLSCAASGFTLSDYYIYWVRQAPGKRLEWVATISDAVIYTYYADSVKGRFTISRDNAKNSLYLQMNSLRAEDTAVYFCARAYGSSEVMDYWGQGTLVTVSS VL: EIVLTQSPATLSLSPGERATLSCSASSSVSYMHWYQQKPGQAPRRWIYDTSKLASGIPARFSGSGSGTDYTLTISSLEPEDFAVYYCQQWSSNPWTFGGGTKLEIKR"
reported_result = 225000

[[record]]
binder = "humanized antibody cAb01-VH1-DA-VL3 (antibody, human IgG4 S228P, kappa, V domains shown, Humanized from mAb001) VH: EVQLVESGGGLVKPGGSLRLSCAASGFTLSDYYIYWVRQAPGKGLEWVSTISDAVIYTYYADSVKGRFTISRDNAKNSLYLQMNSLRAEDTAVYYCARAYGSSEVMDYWGQGTLVTVSS VL: EIVLTQSPATLSLSPGERATLSCSASSSVSYMHWYQQKPGQAPKRWIYDTSKLASGVPARFSGSGSGTDYTLTISSLEPEDFAVYYCQQWSSNPWTFGGGTKLEIKR"
reported_result = 180000

[[record]]
binder = "humanized antibody cAb01-VH2-DA-VL2 (antibody, human IgG4 S228P, kappa, V domains shown, Humanized from mAb001) VH: EVQLVESGGGLVKPGGSLRLSCAASGFTLSDYYIYWVRQAPGKGLEWVATISDAVIYTYYADSVKGRFTISRDNAKNSLYLQMNSLRAEDTAVYFCARAYGSSEVMDYWGQGTLVTVSS VL: EIVLTQSPATLSLSPGERATLSCSASSSVSYMHWYQQKPGQAPRRWIYDTSKLASGIPARFSGSGSGTDYTLTISSLEPEDFAVYYCQQWSSNPWTFGGGTKLEIKR"
reported_result = 193000

[[record]]
binder = "humanized antibody cAb01-VH1-DA-VL2 (antibody, human IgG4 S228P, kappa, V domains shown, Humanized from mAb001) VH: EVQLVESGGGLVKPGGSLRLSCAASGFTLSDYYIYWVRQAPGKGLEWVSTISDAVIYTYYADSVKGRFTISRDNAKNSLYLQMNSLRAEDTAVYYCARAYGSSEVMDYWGQGTLVTVSS VL: EIVLTQSPATLSLSPGERATLSCSASSSVSYMHWYQQKPGQAPRRWIYDTSKLASGIPARFSGSGSGTDYTLTISSLEPEDFAVYYCQQWSSNPWTFGGGTKLEIKR"
reported_result = 187000

